# tested_system: MDM2 (Homo sapiens, UniProt Q00987)
# Sequence (Q00987 whole entry): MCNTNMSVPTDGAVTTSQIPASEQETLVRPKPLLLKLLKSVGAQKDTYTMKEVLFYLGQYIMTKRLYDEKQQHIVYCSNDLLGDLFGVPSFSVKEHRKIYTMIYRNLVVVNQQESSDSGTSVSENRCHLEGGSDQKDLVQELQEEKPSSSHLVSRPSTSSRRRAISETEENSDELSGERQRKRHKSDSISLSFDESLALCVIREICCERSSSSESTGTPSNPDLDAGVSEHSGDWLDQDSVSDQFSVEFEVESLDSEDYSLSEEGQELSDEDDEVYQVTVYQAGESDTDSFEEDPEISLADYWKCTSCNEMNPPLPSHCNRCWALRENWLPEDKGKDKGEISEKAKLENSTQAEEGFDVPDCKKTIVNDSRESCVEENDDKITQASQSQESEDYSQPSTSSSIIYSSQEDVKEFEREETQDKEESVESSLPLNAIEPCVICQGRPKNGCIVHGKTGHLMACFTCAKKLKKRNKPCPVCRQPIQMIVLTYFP
# assay_protocol: MDM2 binding screen: displacement of fluorescent p53 peptide probe FP53 (fluorescence polarization)
# condition_label: Acid 14; initial screen; crude macrocycle reactions
Numbered stars: 1 amine (or outer) side, 2 acyl side, 3 side chain; on linkers, the order of the positions; unused ones are H or OH. Bridge positions count the residues as written; N and C are the ends. Square brackets hold non-standard residues; d marks the D form. Peptide text beside a SMILES is read from it. * marks the point of attachment. 2Thenoyl(5-Cl) = O=C(c1ccc(Cl)s1)*; Cysteamide = C(CS[*:3])N[*:1]; Dap = NC[CH](N)C(=O)O; Mpa = O=C(O)CCS
observation_type: fraction fluorescent probe displaced, Screen
Form rule: numeric answer, no unit written next to it.

# input // returns reported fraction fluorescent probe displaced, Screen for input `O=C1CCSSCCNC(=O)[C@H](Cc2ccccc2)NC(=O)[C@H](CNC(=O)c2ccc(Cl)s2)NC(=O)CCN1`
# output -0.00483

# input Give its fraction fluorescent probe displaced, Screen value. Item: O=C1CCSSCCNC(=O)C2CN(C(=O)c3ccc(Cl)s3)CCN2C(=O)C2CCCN(C2)C(=O)C(Cc2c[nH]c3ccccc23)N1 (centres unmarked)
# output 0.34

# input Look up fraction fluorescent probe displaced, Screen: O=C1NC(Cc2c[nH]c3ccccc23)C(=O)N2CCN(C(=O)c3ccc(Cl)s3)CC2C(=O)NCCSSCCC(=O)N2CCCC1C2 (centres unmarked)
# output 0.14

# input Param item = O=C1CCSSCCNC(=O)C(Cc2ccccc2)NC(=O)C(CNC(=O)c2ccc(Cl)s2)NC(=O)c2cccc(c2)CN1 (centres unmarked) ; retrieve measured fraction fluorescent probe displaced, Screen.
# output -0.00483

# input Which fraction fluorescent probe displaced, Screen value belongs to O=C(NCC1NC(=O)C(Cc2c[nH]c3ccccc23)NC(=O)C2CCCN2C(=O)CCSSCCNC1=O)c1ccc(Cl)s1 (centres unmarked) [X B1 W D3 Acid 14] ([Mpa]PW[Dap](2Thenoyl(5-Cl))-Cysteamide; disulfide 1-C; configuration not given here) ?
# output 0.23

###

# tested_system: thrombin (Homo sapiens, UniProt P00734)
# Construct: consists of two polypeptide chains of 36 (light chain) and 259 amino acid
# assay_protocol: Thrombin inhibition screen of crude macrocycle reactions (residual thrombin activity, fluorogenic substrate Z-Gly-Gly-Arg-AMC)
# Format: biochemical
# condition_label: 10 µM macrocycle concentration; macrocycles containing acid 14; crude reaction; original screen
Numbered stars: 1 amine (or outer) side, 2 acyl side, 3 side chain; on linkers, the order of the positions; unused ones are H or OH. Bridge positions count the residues as written; N and C are the ends. Square brackets hold non-standard residues; d marks the D form. Peptide text beside a SMILES is read from it. * marks the point of attachment. 2Thenoyl(5-Cl) = O=C(c1ccc(Cl)s1)*; Cysteamide = C(CS[*:3])N[*:1]; Api = NC1(C(=O)O)CCNCC1; Mpa = O=C(O)CCS
observation_type: % thrombin activity, Original screen (%)
Give the number; % is assumed, so skip it.

# input Which measured % thrombin activity, Original screen value corresponds to O=C1CCSSCCNC(=O)C2(CCN(C(=O)c3ccc(Cl)s3)CC2)NC(=O)[C@@H]2CCCN2C(=O)[C@H](Cc2c[nH]c3ccccc23)N1 [X W B1 D6] ([Mpa]WP[Api](2Thenoyl(5-Cl))-Cysteamide; disulfide 1-C) ?
# output 105.0

# input % thrombin activity, Original screen for O=C(NCCCCC1NC(=O)C2CCCN(C2)C(=O)CCSSCCNC(=O)C(CO)NC1=O)c1ccc(Cl)s1 (centres unmarked) [X B4 D1 S] ?
# output 96.9

# input What does the data say about its % thrombin activity, Original screen? Entry: O=C1CCSSCCNC(=O)[C@@H](Cc2ccccc2)NC(=O)c2ccc(cc2)CNC(=O)[C@H](CNC(=O)c2ccc(Cl)s2)N1 [X D3 B3 f]
# output 77.4

# input Reported % thrombin activity, Original screen for O=C1CCSSCCNC(=O)[C@H](Cc2ccc(O)cc2)NC(=O)c2cccc(c2)CNC(=O)[C@H](CCCNC(=O)c2ccc(Cl)s2)N1 [X D2 B5 Y] : what is it?
# output 78.2

# input Which % thrombin activity, Original screen value is on record for CC[C@H](C)[C@@H]1NC(=O)CCSSCCNC(=O)c2ccc(cc2)CNC(=O)[C@H](CNC(=O)c2ccc(Cl)s2)NC1=O [X I D3 B3] ?
# output 102.3
